Value source: ChEMBL document CHEMBL4673399

- TGT: Sigma non-opioid intracellular receptor 1 (Homo sapiens, UniProt Q99720)
- Sequence (Q99720 whole entry): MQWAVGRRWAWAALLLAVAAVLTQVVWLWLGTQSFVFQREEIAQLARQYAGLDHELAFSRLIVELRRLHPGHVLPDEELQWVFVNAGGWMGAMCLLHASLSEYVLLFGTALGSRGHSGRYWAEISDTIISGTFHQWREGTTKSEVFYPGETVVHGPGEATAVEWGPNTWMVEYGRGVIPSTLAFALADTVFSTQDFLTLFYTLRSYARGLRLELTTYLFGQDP
- PROTOCOL SUMMARY: Binding affinity to sigma 1 receptor (unknown origin)
PROPERTY NAME: Ki

Known Ki results, listed for orientation:
[[record]]
compound = "O=C(c1nn(-c2ccccc2)c2c1CC(NCCc1ncc[nH]1)CC2)N1CCCCC1 (stereo not given)"
result = "1 µM"

[[record]]
compound = "CCCn1nc(C(=O)N2CCCCC2)c2c1CCN(CCc1ccc(F)cc1)C2"
result = "< 1 µM"

[[record]]
compound = "O=C(c1nn(-c2ccccc2)c2c1CC(N1CCc3ccccc3C1)CC2)N1CCCCC1 (stereo not given)"
result = "1 µM"


Data request: Looking for the measured Ki of CCCn1nc(C(=O)N2CCCCC2)c2c1CCN(CCc1cccc(C(F)(F)F)c1)C2 , can you help?
Data returned: 1 µM

Data request: Looking for the measured Ki of O=C(c1nn(-c2ccccc2)c2c1CC(NCC1CCOCC1)CC2)N1CCCCC1 (stereo not given) , can you help?
Data returned: < 1 µM
